molecular target: CYP3A4 (Homo sapiens); assay: in vitro; conditions: pH 8, % inhibition, substrate BOMCC, Condition A
Sequence (P08684 whole entry): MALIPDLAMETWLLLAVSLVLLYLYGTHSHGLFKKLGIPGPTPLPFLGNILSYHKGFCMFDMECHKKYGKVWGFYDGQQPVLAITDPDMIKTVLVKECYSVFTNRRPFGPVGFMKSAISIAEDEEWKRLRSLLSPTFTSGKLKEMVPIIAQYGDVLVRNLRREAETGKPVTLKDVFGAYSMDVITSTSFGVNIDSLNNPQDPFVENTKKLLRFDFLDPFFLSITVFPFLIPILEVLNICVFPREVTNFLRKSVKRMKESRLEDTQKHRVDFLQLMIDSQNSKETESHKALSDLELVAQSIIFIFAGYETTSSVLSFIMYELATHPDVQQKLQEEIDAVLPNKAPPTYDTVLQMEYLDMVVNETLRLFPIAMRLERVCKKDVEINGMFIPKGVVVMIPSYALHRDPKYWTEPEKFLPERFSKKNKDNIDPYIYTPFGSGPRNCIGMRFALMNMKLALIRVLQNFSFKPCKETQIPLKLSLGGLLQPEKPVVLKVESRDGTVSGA
measured.attribute: inhibition at 20 min, 10 µM (%)

Observe how each entry below is paired with its result.
| compound | inhibition at 20 min, 10 µM [%] |
| --- | --- |
| NNC(=O)c1ccncc1 [Isoniazid] | 59 |
| O=C1CN(/N=C/c2ccc([N+](=O)[O-])o2)C(=O)N1 [Nitrofurantoin] | 44 |
| COc1cccc2c1C(=O)c1c(O)c3c(c(O)c1C2=O)C[C@@](O)(C(=O)CO)C[C@@H]3O[C@H]1C[C@H](N)[C@H](O)[C@H](C)O1 [Doxorubicin] | 81 |

I = O=C1NC(=O)C(c2ccccc2)(c2ccccc2)N1 [Diphenylhydantoin]
II = C=CCOc1ccccc1OCC(O)CNC(C)C (centres unmarked) [Oxprenolol]
Q) Parameter check: reported inhibition at 20 min, 10 µM is higher for which label, I or II ? Reply briefly: the label of your chosen item.
A) II
